Provide the reported MIC of each item.
System: Mucor
Assay: Antifungal activity against Mucor after 1 to 7 days by twofold serial dilution method
Assay type: functional
Report the value in mg/L with no unit label.

Input: Return MIC for the following compound: O=C(CN1CCOCC1)Nc1nc(-c2ccccc2)cc(-c2ccc(F)cc2)n1
Output: 50

Input: Return MIC for the following compound: OC(Cn1cncn1)(Cn1cncn1)c1ccc(F)cc1F
Output: 25

Input: Return MIC for the following compound: COc1ccc(-c2cc(-c3ccc(C)cc3)nc(NC(=O)CN3CCOCC3)n2)cc1
Output: 50

Input: Return MIC for the following compound: O=C(CN1CCOCC1)Nc1nc(-c2ccc(F)cc2)cc(-c2ccc(F)cc2)n1
Output: 6.25

* * *

System: Mucor
Test: Antifungal activity against Mucor after 1 to 7 days by twofold serial dilution method
Assay type: functional
metric: MIC (mg/L)
Report the value in mg/L with no unit label.

Input: Return MIC for the following compound: O=C(CN1CCOCC1)Nc1nc(-c2ccccc2)cc(-c2ccccc2)n1
Output: 100

Input: Return MIC for the following compound: COc1ccc(-c2cc(-c3ccccc3)nc(NC(=O)CN3CCOCC3)n2)cc1
Output: 200

Input: Return MIC for the following compound: Cc1ccc(-c2cc(-c3ccc(F)cc3)nc(NC(=O)CN3CCOCC3)n2)cc1
Output: 100

Input: Return MIC for the following compound: COc1ccc(-c2cc(-c3ccc(F)cc3)nc(NC(=O)CN3CCOCC3)n2)cc1
Output: 6.25

Input: Return MIC for the following compound: Cc1ccc(-c2cc(-c3ccccc3)nc(NC(=O)CN3CCOCC3)n2)cc1
Output: 50

* * *

Tested on: Pseudomonas
Assay: Antibacterial activity against Pseudomonas after 24 hrs by twofold serial dilution method
Assay type: functional
metric: MIC (mg/L)
Report the value in mg/L with no unit label.

Input: Return MIC for the following molecule: COc1ccc(-c2cc(-c3ccc(C)cc3)nc(NC(=O)CN3CCOCC3)n2)cc1
Output: 50

Input: Return MIC for the following molecule: O=C(CN1CCOCC1)Nc1nc(-c2ccccc2)cc(-c2ccc(F)cc2)n1
Output: 100

Input: Return MIC for the following molecule: Cc1ccc(-c2cc(-c3ccc(F)cc3)nc(NC(=O)CN3CCOCC3)n2)cc1
Output: 100

Input: Return MIC for the following molecule: O=C(CN1CCOCC1)Nc1nc(-c2ccccc2)cc(-c2ccccc2)n1
Output: 100

Input: Return MIC for the following molecule: COc1ccc(-c2cc(-c3ccc(F)cc3)nc(NC(=O)CN3CCOCC3)n2)cc1
Output: 6.25

Input: Return MIC for the following molecule: O=C(O)c1cn(C2CC2)c2cc(N3CCNCC3)c(F)cc2c1=O
Output: 25

Input: Return MIC for the following molecule: O=C(CN1CCOCC1)Nc1nc(-c2ccc(F)cc2)cc(-c2ccc(F)cc2)n1
Output: 6.25

Input: Return MIC for the following molecule: COc1ccc(-c2cc(-c3ccccc3)nc(NC(=O)CN3CCOCC3)n2)cc1
Output: 50

Input: Return MIC for the following molecule: Cc1ccc(-c2cc(-c3ccccc3)nc(NC(=O)CN3CCOCC3)n2)cc1
Output: 50

* * *

Provide the reported MIC of each item.
Tested on: Nannizzia gypsea
Test: Antifungal activity against Microsporum gypseum after 1 to 7 days by twofold serial dilution method
Assay type: functional
Report the value in mg/L with no unit label.

Input: Consider the compound OC(Cn1cncn1)(Cn1cncn1)c1ccc(F)cc1F tested on Nannizzia gypsea; state its MIC.
Output: 25

Input: Consider the compound Cc1ccc(-c2cc(-c3ccc(F)cc3)nc(NC(=O)CN3CCOCC3)n2)cc1 tested on Nannizzia gypsea; state its MIC.
Output: 12.5

Input: Consider the compound O=C(CN1CCOCC1)Nc1nc(-c2ccccc2)cc(-c2ccccc2)n1 tested on Nannizzia gypsea; state its MIC.
Output: 200

Input: Consider the compound COc1ccc(-c2cc(-c3ccc(C)cc3)nc(NC(=O)CN3CCOCC3)n2)cc1 tested on Nannizzia gypsea; state its MIC.
Output: 50

Input: Consider the compound COc1ccc(-c2cc(-c3ccc(F)cc3)nc(NC(=O)CN3CCOCC3)n2)cc1 tested on Nannizzia gypsea; state its MIC.
Output: 100

Input: Consider the compound COc1ccc(-c2cc(-c3ccccc3)nc(NC(=O)CN3CCOCC3)n2)cc1 tested on Nannizzia gypsea; state its MIC.
Output: 100

Input: Consider the compound Cc1ccc(-c2cc(-c3ccccc3)nc(NC(=O)CN3CCOCC3)n2)cc1 tested on Nannizzia gypsea; state its MIC.
Output: 50

Input: Consider the compound O=C(CN1CCOCC1)Nc1nc(-c2ccccc2)cc(-c2ccc(F)cc2)n1 tested on Nannizzia gypsea; state its MIC.
Output: 200

Input: Consider the compound O=C(CN1CCOCC1)Nc1nc(-c2ccc(F)cc2)cc(-c2ccc(F)cc2)n1 tested on Nannizzia gypsea; state its MIC.
Output: 100
